Target: Proto-oncogene tyrosine-protein kinase Src (Homo sapiens)
Sequence (P12931 2-536 limits assumed): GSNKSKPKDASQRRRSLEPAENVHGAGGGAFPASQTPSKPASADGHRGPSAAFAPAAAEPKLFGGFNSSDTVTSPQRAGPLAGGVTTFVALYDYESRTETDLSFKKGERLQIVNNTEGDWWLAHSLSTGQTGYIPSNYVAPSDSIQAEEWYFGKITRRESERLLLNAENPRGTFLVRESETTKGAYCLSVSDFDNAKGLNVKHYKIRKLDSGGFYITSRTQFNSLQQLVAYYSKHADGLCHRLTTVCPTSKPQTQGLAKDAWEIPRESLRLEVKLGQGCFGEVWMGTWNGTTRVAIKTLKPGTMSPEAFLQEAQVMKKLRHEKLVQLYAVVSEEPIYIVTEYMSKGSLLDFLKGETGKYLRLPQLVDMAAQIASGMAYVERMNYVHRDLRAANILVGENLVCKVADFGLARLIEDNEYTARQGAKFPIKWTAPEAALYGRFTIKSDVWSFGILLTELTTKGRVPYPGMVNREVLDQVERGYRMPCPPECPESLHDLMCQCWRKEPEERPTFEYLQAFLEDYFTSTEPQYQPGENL
Experiment: Kinase Inhibition Assay
pIC50: −log10 of the molar value.
Property Label: pIC50

Consider the compound CCN(CC)CCOc1ccc(C)c(-c2cc3cnc(N)nc3nc2NC(=O)NC(C)(C)C)c1C . State its measured pIC50.
5.78

(P) CC(C)(C)NC(=O)Nc1nc2nc(N)ncc2cc1-c1cc(F)cc(F)c1
(Q) Cc1ccc(-c2cc3cnc(N)nc3nc2NC(=O)NC(C)(C)C)cc1
Consider P and Q . Which of these has its pIC50 at a higher number? Please reply using the label of the selected record.
P

---

Biological target: Mitogen-activated protein kinase 1/3 (Homo sapiens, UniProt P27361+P28482)
Sequence (P28482 whole entry): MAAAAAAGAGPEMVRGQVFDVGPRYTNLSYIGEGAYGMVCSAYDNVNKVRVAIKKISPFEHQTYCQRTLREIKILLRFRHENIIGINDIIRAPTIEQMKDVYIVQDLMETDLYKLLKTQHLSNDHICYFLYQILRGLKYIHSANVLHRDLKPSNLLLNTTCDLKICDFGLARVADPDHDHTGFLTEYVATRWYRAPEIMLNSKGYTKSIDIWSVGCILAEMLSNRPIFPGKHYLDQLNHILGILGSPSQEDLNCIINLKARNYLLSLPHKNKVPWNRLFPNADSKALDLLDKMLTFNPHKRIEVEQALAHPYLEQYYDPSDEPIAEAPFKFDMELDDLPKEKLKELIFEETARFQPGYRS
Sequence (P27361 whole entry): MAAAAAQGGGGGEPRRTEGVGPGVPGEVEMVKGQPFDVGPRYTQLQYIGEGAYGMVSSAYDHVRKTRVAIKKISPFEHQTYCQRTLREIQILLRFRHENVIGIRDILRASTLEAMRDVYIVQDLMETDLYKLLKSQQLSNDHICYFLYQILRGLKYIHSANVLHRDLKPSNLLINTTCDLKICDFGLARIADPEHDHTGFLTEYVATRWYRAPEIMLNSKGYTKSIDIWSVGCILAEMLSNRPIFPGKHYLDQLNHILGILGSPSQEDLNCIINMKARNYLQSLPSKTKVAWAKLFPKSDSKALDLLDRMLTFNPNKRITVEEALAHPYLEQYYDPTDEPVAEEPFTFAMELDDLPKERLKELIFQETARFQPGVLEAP
Assay: Kinase Inhibition Assay
Property Label: IC50 (µM)
I only need the number, in µM, no unit after it.

Indicate its recorded IC50; the compound in question is CC(C)(C)NC(=O)Nc1nc2nc(N)ncc2cc1-c1c(Cl)cccc1Cl
7.1

---

Biological target: Platelet-derived growth factor receptor alpha/beta (Homo sapiens, UniProt P09619+P16234)
Test: Kinase Inhibition Assay
Property Label: IC50 (nM)

# example entries with known answers
Provide one value: measured IC50 of CC(C)(C)NC(=O)Nc1nc2nc(N)ncc2cc1-c1c(F)cccc1F
1670

Entry CC(C)(C)NC(=O)Nc1nc2nc(N)ncc2cc1-c1c(Cl)cccc1Br needs its IC50 filled in; supply it.
620

Retrieve IC50 measured for Cc1ccccc1-c1cc2cnc(N)nc2nc1NC(=O)NC(C)(C)C and print it.
1050

Identify measured IC50 associated with COc1cccc(-c2cc3cnc(N)nc3nc2NC(=O)NC(C)(C)C)c1
22900

Provide one value: measured IC50 of CC(C)(C)NC(=O)Nc1nc2nc(N)ncc2cc1-c1cc(F)cc(F)c1
8970

(1) CC(C)(C)NC(=O)Nc1nc2nc(N)ncc2cc1-c1c(Cl)cccc1Cl
(2) CC(C)(C)NC(=O)Nc1nc2nc(N)ncc2cc1-c1c(Cl)ccc(Cl)c1Cl
(3) Cc1ccc(-c2cc3cnc(N)nc3nc2NC(=O)NC(C)(C)C)cc1
(4) CCN(CC)CCOc1ccc(C)c(-c2cc3cnc(N)nc3nc2NC(=O)NC(C)(C)C)c1C
Rank entries according to their IC50, from the largest number down. Provide the ranking by listing each label in its place in the requested order.
4, 3, 2, 1
(4: 11800 nM, 3: 6310 nM, 2: 2960 nM, 1: 1250 nM)

(I) Cc1cc(C)c(-c2cc3cnc(N)nc3nc2NC(=O)NC(C)(C)C)c(C)c1
(II) COc1ccc(-c2cc3cnc(N)nc3nc2NC(=O)NC(C)(C)C)cc1
Which record would sort first by descending IC50, I or II ? Your answer should be the label attached to the chosen record.
II
(II: 2890 nM, I: 1470 nM)

---

Biological target: Platelet-derived growth factor receptor beta (Homo sapiens)
Test: Kinase Inhibition Assay
Conditions: pH 7.4; 25 °C
pIC50: −log10 of the molar value.
Property Label: pIC50

Would you please give the reported pIC50 of CCN(CC)CCOc1ccc(C)c(-c2cc3cnc(N)nc3nc2NC(=O)NC(C)(C)C)c1C with Platelet-derived growth factor receptor beta (Homo sapiens)?
4.93

State, for Platelet-derived growth factor receptor beta (Homo sapiens), measured pIC50 of the compound listed here: CC(C)(C)NC(=O)Nc1nc2nc(N)ncc2cc1-c1c(Br)cccc1Br
5.85

Tell me pIC50 of CC(C)(C)NC(=O)Nc1nc2nc(N)ncc2cc1-c1cc(F)cc(F)c1 when tested on Platelet-derived growth factor receptor beta (Homo sapiens).
5.05

// output pIC50; input CC(C)(C)NC(=O)Nc1nc2nc(N)ncc2cc1-c1c(Cl)ccc(Cl)c1Cl ; system Platelet-derived growth factor receptor beta (Homo sapiens)
5.53

Specify the recorded pIC50 for CC(C)(C)NC(=O)Nc1nc2nc(N)ncc2cc1-c1ccccc1 , system: Platelet-derived growth factor receptor beta (Homo sapiens).
4.88

(1) Cc1ccc(-c2cc3cnc(N)nc3nc2NC(=O)NC(C)(C)C)cc1
(2) CC(C)(C)NC(=O)Nc1nc2nc(N)ncc2cc1-c1cccc(Cl)c1Cl
Identify the entry with the larger pIC50. Options: 1 and 2 Give the chosen item's label as your response.
2

(1) CC(C)(C)NC(=O)Nc1nc2nc(N)ncc2cc1-c1c(F)cccc1F
(2) CCc1ccccc1-c1cc2cnc(N)nc2nc1NC(=O)NC(C)(C)C
Identify the entry with the larger pIC50. Options: 1 and 2 Give the chosen item's label as your response.
1
(1: 5.78, 2: 5.35)

(a) COc1ccccc1-c1cc2cnc(N)nc2nc1NC(=O)NC(C)(C)C
(b) CC(C)(C)NC(=O)Nc1nc2nc(N)ncc2cc1-c1c(Cl)cccc1Cl
(c) Cc1cc(C)cc(-c2cc3cnc(N)nc3nc2NC(=O)NC(C)(C)C)c1
(d) CC(C)(C)NC(=O)Nc1nc2nc(N)ncc2cc1-c1c(Cl)cccc1Br
Put the items in order so that reported pIC50 rises from first to last. Answer format: list of labels, ordered as asked.
c, a, b, d

---

pIC50: −log10 of the molar value.
So I've got pIC50 readings for Proto-oncogene tyrosine-protein kinase Src (Homo sapiens, UniProt P12931), take a look.
Property Label: pIC50

(1) CCc1ccccc1-c1cc2cnc(N)nc2nc1NC(=O)NC(C)(C)C
(2) CC(C)(C)NC(=O)Nc1nc2nc(N)ncc2cc1-c1c(Cl)cccc1Br
In the pair 1 and 2 , the larger recorded pIC50 belongs to which? Identify your pick by its label.
2

---

Target: Protein kinase C (PKC)
Experiment: Kinase Inhibition Assay
Property Label: IC50

Tell me measured IC50 for Cc1cc(C)c(C)c(-c2cc3cnc(N)nc3nc2NC(=O)NC(C)(C)C)c1C please.
> 50 µM

---

Target: Platelet-derived growth factor receptor alpha/beta (Homo sapiens, UniProt P09619+P16234)
Assay: Kinase Inhibition Assay
Property Label: IC50 (µM)

Consider the following illustrative entries.
Return reported IC50 for target or system Platelet-derived growth factor receptor alpha/beta (Homo sapiens, UniProt P09619+P16234), item COc1ccccc1-c1cc2cnc(N)nc2nc1NC(=O)NC(C)(C)C .
4.48

Give IC50 for this entry on Platelet-derived growth factor receptor alpha/beta (Homo sapiens, UniProt P09619+P16234): CC(C)(C)NC(=O)Nc1nc2nc(N)ncc2cc1-c1ccccc1
13.2

Give IC50 only, for Cc1cccc(-c2cc3cnc(N)nc3nc2NC(=O)NC(C)(C)C)c1C , using Platelet-derived growth factor receptor alpha/beta (Homo sapiens, UniProt P09619+P16234) data.
6.05

Lab note: Platelet-derived growth factor receptor alpha/beta (Homo sapiens, UniProt P09619+P16234) assay, enter IC50 for Cc1cc(C)cc(-c2cc3cnc(N)nc3nc2NC(=O)NC(C)(C)C)c1 here
52.9

Supply IC50 measured with Platelet-derived growth factor receptor alpha/beta (Homo sapiens, UniProt P09619+P16234) for CCc1ccccc1-c1cc2cnc(N)nc2nc1NC(=O)NC(C)(C)C .
4.48

(a) CC(C)(C)NC(=O)Nc1nc2nc(N)ncc2cc1-c1cccc(Cl)c1Cl
(b) CC(C)(C)NC(=O)Nc1nc2nc(N)ncc2cc1-c1c(Br)cccc1Br
(c) CCOc1cccc(-c2cc3cnc(N)nc3nc2NC(=O)NC(C)(C)C)c1
Number of molecules to sort: 3. Sort criterion: IC50, ascending. Put the labels in the requested order and list them out.
b, a, c
(b: 1.42 µM, a: 2.26 µM, c: 23 µM)

---

Target: Platelet-derived growth factor receptor beta (Homo sapiens, UniProt P09619)
Sequence (P09619 whole entry): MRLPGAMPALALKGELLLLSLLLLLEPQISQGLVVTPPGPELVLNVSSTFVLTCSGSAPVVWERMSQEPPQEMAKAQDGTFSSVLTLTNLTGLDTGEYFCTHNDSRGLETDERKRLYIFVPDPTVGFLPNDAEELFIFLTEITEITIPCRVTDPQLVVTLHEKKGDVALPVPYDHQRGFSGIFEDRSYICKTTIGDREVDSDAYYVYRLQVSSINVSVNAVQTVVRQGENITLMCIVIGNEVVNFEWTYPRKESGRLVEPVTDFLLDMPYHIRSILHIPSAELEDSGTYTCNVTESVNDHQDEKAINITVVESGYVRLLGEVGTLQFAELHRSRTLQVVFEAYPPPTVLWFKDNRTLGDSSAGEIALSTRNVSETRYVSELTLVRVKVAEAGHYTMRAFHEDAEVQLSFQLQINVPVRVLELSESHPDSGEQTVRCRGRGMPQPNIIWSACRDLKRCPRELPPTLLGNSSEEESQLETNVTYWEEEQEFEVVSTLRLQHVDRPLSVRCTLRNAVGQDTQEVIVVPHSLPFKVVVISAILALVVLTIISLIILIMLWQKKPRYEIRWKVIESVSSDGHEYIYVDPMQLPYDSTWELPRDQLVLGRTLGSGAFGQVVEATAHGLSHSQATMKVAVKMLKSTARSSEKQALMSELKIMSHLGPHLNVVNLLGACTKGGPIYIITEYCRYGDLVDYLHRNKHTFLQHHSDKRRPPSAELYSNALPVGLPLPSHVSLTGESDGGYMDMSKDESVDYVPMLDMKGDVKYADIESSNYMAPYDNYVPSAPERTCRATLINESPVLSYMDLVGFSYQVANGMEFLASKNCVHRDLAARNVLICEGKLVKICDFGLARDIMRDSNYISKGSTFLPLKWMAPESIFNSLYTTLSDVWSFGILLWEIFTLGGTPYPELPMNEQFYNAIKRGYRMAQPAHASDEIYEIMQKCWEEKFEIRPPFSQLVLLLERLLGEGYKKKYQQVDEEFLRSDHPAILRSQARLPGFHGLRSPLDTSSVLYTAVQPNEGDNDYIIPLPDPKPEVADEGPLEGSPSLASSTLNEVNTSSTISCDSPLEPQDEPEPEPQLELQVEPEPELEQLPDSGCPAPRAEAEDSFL
Assay: Kinase Inhibition Assay
Property Label: IC50 (µM)

// fetch IC50 given entry CCOc1cccc(-c2cc3cnc(N)nc3nc2NC(=O)NC(C)(C)C)c1
23

(1) COc1cccc(-c2cc3cnc(N)nc3nc2NC(=O)NC(C)(C)C)c1
(2) COc1ccc(-c2cc3cnc(N)nc3nc2NC(=O)NC(C)(C)C)cc1
Parameter metric = IC50. Return the lower-valued option from 1 and 2 . // output: label of the selected item
2
(2: 2.89 µM, 1: 22.9 µM)

---

Biological target: Fibroblast growth factor receptor 1 (Homo sapiens, UniProt P11362)
Sequence (P11362 whole entry): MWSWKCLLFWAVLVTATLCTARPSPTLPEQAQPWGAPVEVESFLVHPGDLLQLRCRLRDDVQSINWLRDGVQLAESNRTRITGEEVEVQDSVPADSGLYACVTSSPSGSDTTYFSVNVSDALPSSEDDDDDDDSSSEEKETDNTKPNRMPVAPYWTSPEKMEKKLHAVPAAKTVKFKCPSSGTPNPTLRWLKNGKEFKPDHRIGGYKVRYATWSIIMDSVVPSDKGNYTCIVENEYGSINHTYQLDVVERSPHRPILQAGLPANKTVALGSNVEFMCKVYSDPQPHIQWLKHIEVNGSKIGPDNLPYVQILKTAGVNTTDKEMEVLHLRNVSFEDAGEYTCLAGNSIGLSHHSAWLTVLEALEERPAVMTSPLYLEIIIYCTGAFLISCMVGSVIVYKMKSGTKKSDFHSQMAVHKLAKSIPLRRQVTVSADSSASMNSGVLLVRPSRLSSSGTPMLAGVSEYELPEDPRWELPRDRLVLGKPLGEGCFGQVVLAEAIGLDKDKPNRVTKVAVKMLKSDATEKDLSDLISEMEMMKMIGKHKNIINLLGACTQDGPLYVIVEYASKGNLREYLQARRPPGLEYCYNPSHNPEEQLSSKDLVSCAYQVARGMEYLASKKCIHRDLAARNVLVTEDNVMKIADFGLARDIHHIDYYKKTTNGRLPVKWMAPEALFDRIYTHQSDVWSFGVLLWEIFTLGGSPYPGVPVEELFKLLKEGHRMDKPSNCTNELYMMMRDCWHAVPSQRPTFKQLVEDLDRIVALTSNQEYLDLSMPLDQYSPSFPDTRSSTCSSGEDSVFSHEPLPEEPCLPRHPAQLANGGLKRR
pIC50: −log10 of the molar value.
Property Label: pIC50

(a) CC(C)(C)NC(=O)Nc1nc2nc(N)ncc2cc1-c1ccccc1
(b) COc1ccc(-c2cc3cnc(N)nc3nc2NC(=O)NC(C)(C)C)cc1
(c) CC(C)(C)NC(=O)Nc1nc2nc(N)ncc2cc1-c1c(Cl)ccc(Cl)c1Cl
(d) Cc1cc(C)c(-c2cc3cnc(N)nc3nc2NC(=O)NC(C)(C)C)c(C)c1
Order each entry by recorded pIC50, climbing from the minimum. Your reply should list the labels following the order given in the request.
a, b, d, c
(a: 5.10, b: 5.40, d: 6.57, c: 6.96)

---

Target: Platelet-derived growth factor receptor beta (Homo sapiens, UniProt P09619)
Experiment: Kinase Inhibition Assay
Conditions: pH 7.4; 25 °C
Property Label: IC50 (µM)

(a) Cc1cccc(-c2cc3cnc(N)nc3nc2NC(=O)NC(C)(C)C)c1C
(b) Cc1ccccc1-c1cc2cnc(N)nc2nc1NC(=O)NC(C)(C)C
Which one would you say has the larger IC50 value: a , or b ? // return label of chosen record
a
